Reference source: ChEMBL document CHEMBL3988442

test system: Plasmodium falciparum; test: Calibr Malaria Delayed Death Assay SOP; format: functional, organism-based; design: scale not given: in the data most compounds retested in dose-response had high values; conditions: concentration 4.99e-06 (unit not given; other assays of the set use mol/L)
In all, about 38,000 compounds went through this assay and about 1,200 (3.2%) showed an effect of 50% or more. The median lay at about -58%. Shown is part of a subset that was picked to be rich in strong results.
# key: entry, value: Percent Effect

MOLECULE	Percent Effect, %
CN(CC1CC1)C(=O)CN(Cc1cccc(O)c1)C1CCC(O)CC1 (stereo unspecified)	-102.5
COc1ccccc1N1CCC(CNCc2c(C)nn(C)c2OC)C1 (stereo unspecified)	51.83
COc1c(CNC2CCN(c3ncccn3)CC2)c(C)nn1C	-45.93
CCN(CC)Cc1cc(=O)n2c(n1)CN(C(=O)c1ccnnc1)CCC2.O=C(O)C(F)(F)F	-110.9
COc1ccccc1N1CCC(CNCc2cccc(C#N)c2)C1 (stereo unspecified)	0.8345
CC/N=c1\nc(NCC)nc2n1C(O)(Nc1cc(Cl)ccc1Cl)CS2 (stereo unspecified)	-3.589
COc1ccccc1N1CCC(CNC(=O)N(C)Cc2ccco2)C1 (stereo unspecified)	-114.8
CN1CC[C@H](N(Cc2ccccc2)C2COC2)C[C@H](O)C1	43.99
CN1CC[C@H](N(Cc2ccccc2)CC2CC2)C[C@H](O)C1	80.63
COc1ccc(CNCC2CCN(c3ccccc3OC)C2)cc1O (stereo unspecified)	21.41
Cc1ccc(C(=O)N2CCC3(CCC(=O)N(CC(C)O)C3)CC2)c(O)c1 (stereo unspecified)	-27.05

* * *

tested on: Plasmodium falciparum; experiment: Calibr Malaria Delayed Death Assay SOP; assay type: functional, organism-based; design: scale not given: in the data most compounds retested in dose-response had high values; conditions: concentration 4.99e-06 (unit not given; other assays of the set use mol/L)
The whole screen tested about 38,000 compounds, of which about 1,200 (3.2%) showed an effect of 50% or more. The median lay at about -58%. The list comes from a sample in which strong results are over-represented; it also holds close analogues and randomly drawn compounds.
Measured Percent Effect values are reported for all entries that follow.

COMPOUND	Percent Effect, %
Cc1ccc([C@]2(O)CC[C@H]3CN(Cc4ccc(Cl)cc4Cl)C[C@H]32)nc1	64.98
Cc1ccc(CN(C)C(=O)c2ccc(NC3CC3)nc2)o1	-155.8
O=C(O)C(F)(F)F.c1cnc(N2C[C@@H]3COC[C@]3(COCC3CCCC3)C2)nc1	-62.66
CC(Nc1ccc(F)cc1)c1nnnn1-c1ccccc1 (stereo not given)	-147.9
Cc1ccc([C@]2(O)CC[C@H]3CN(Cc4cccnc4)C[C@H]32)nc1	-69.34
Cc1cccc2c1OCCCC2NCc1nnc2n1CCCCC2 (stereo not given)	-75.07
CO[C@H]1CN(C(=O)OC(C)(C)C)CC1NCc1cc[nH]c1 (stereo not given in full)	-107.9
Cn1cc(CNC2CCCOc3c(Cl)cccc32)cn1 (stereo not given)	17.16
COCCn1ccc(=O)c(OCC(=O)Nc2cccc(OC)c2)c1C	-50.47
CC(C)CNC(=O)N1C[C@H]2C[C@H](C(=O)NCc3ccccc3)[C@@H](C1)O2	-25.06

* * *

tested on: Plasmodium falciparum; experiment: Calibr Malaria Delayed Death Assay SOP; type: functional, organism-based; design: scale not given: in the data most compounds retested in dose-response had high values; conditions: concentration 4.99e-06 (unit not given; other assays of the set use mol/L)
Screen size: about 38,000 compounds; about 1,200 (3.2%) showed an effect of 50% or more. The median lay at about -58%. This excerpt belongs to a sample that is enriched for strong results.
Classification field: YES = Percent Effect at or over -40%; NO = Percent Effect under -40%.

COMPOUND	GROUP
COCC1CC2(CCN(Cc3cccc(C#N)c3)CC2)CN1C(C)C.O=C(O)C(F)(F)F.O=C(O)C(F)(F)F (configuration not stated)	YES
COCCOCC(=O)Nc1ccnn1-c1ccc(Cl)cc1	NO
NCCC(Cc1ccccc1)c1ccco1 (configuration not stated)	YES
O=C(c1cn(-c2ccccc2Cl)nn1)N1CCN(CCO)CC1	NO
O=C(C1CCOC1)N1C[C@H]2CN(Cc3cccnc3)C(=O)[C@H]2C1.O=C(O)C(F)(F)F (some centres not stated)	NO
CCC(c1ccccc1)N1CCN(CCO)CC1 (configuration not stated)	YES
O=C(NCCc1ccncc1)c1ccc(S(=O)(=O)NC2CCC2)cc1	YES
CC(c1cccnc1)N1CCN(CCO)CC1 (configuration not stated)	NO
COc1ccc(C(C)NCc2c[nH]nc2C)cc1Br.Cl (configuration not stated)	YES
COCC1CC2(CCN(C(=O)c3ccco3)CC2)CN1C(C)C.O=C(O)C(F)(F)F (configuration not stated)	YES
COCC1CC2(CCN(Cc3ccc(C)o3)CC2)CN1C(C)C.O=C(O)C(F)(F)F.O=C(O)C(F)(F)F (configuration not stated)	YES
CCOc1cccc(C(C)NCc2ccc(OC)c(OC)c2OC)c1 (configuration not stated)	YES
COc1cc(CNC(C)c2cccc(Cl)c2)cc(OC)c1OC (configuration not stated)	YES
COc1cc(CNC(C)Cn2cccn2)cc(OC)c1OC.Cl (configuration not stated)	YES
COc1cccc(CNC(C)Cn2cccn2)c1OC.Cl (configuration not stated)	YES
CCc1ccc(OCC(O)CN2CCN(CCO)CC2)cc1.Cl.Cl (configuration not stated)	NO
CCOC(=O)N1CCC2(CCCN(C3CCOCC3)C2=O)C1 (configuration not stated)	NO
COCC1CC2(CCN(Cc3ccco3)CC2)CN1C(C)C.O=C(O)C(F)(F)F.O=C(O)C(F)(F)F (configuration not stated)	YES
O=S(=O)(Cc1ccccc1)NCc1ccco1	NO
CN(Cc1ccncc1)C1COC2(CCN(Cc3ccco3)CC2)C1.O=C(O)C(F)(F)F.O=C(O)C(F)(F)F.O=C(O)C(F)(F)F (configuration not stated)	NO
COCC1CC2(CCN(C(=O)c3ccccc3C)CC2)CN1C(C)C.O=C(O)C(F)(F)F (configuration not stated)	NO
